- Test system: antibody producing cells (SRBC antigen)
- experimental.details: Plaque forming assay (PFC) in spleen cells of SRBC-immunized mice
- Assay type: in vivo
- run.conditions: plaque-forming assay, Table 1
property.label: Immunomodulating activity (in words)

1) CCCCCCCCCCCCCCCCCCOC(=O)[C@@H](CCC(=O)O)NC(=O)[C@H](C)N.Cl immunosuppressors
2) CCCCCCCCCCCCCCCCCCNC(=O)CC[C@@H](NC(=O)[C@H](C)N)C(N)=O.Cl immunostimulants
3) CCCCCCCCCCCCCCCCCCN[C@H](C)C(=O)N[C@@H](CCC(N)=O)C(=O)O.Cl immunostimulants
4) CCCCCCCCCCCCCCCCCCOC(=O)CC[C@@H](NC(=O)[C@H](C)N)C(=O)O.Cl immunosuppressors
